Task for the reader: assign each of the following compounds its reported relative IC50.
test system: SNK-6 (IL-2 2.5 ng/mL); experiment: relative IC50 (inflection point of fitted viability curve, relative to fitted max inhibition); higher = less sensitive; details: 72 h
Your answer should be a plain number; it is taken to be in µM.

Task: Give the measured relative IC50 for CNC(=O)c1ccccc1Sc1ccc2c(/C=C/c3ccccn3)n[nH]c2c1 [Axitinib]
Result: 0.707

Task: Give the measured relative IC50 for O=C1NC(=O)[C@@H](c2cn3c4c(cccc24)CCC3)[C@@H]1c1c[nH]c2ccccc12 [Tivantinib]
Result: 0.0508

Task: Give the measured relative IC50 for C=CCn1c(=O)c2cnc(Nc3ccc(N4CCN(C)CC4)cc3)nc2n1-c1cccc(C(C)(C)O)n1 [MK1775]
Result: 0.156

Task: Give the measured relative IC50 for NS(=O)(=O)OC[C@@H]1C[C@@H](n2ccc3c(N[C@H]4CCc5ccccc54)ncnc32)C[C@@H]1O [Pevonedistat]
Result: 0.0397

Task: Give the measured relative IC50 for CN(C)CCN1C(=O)c2cccc3cc(N)cc(c23)C1=O [Amonafide]
Result: 1.7

Task: Give the measured relative IC50 for CC1(COc2ccc3c(c2)ncn3-c2ccc3cccc(N4CCC(N)CC4)c3n2)COC1 [Crenolanib]
Result: 0.429

Task: Give the measured relative IC50 for Cn1c(CCCC(=O)O)nc2cc(N(CCCl)CCCl)ccc21 [Bendamustine]
Result: 1.68

Task: Give the measured relative IC50 for CC(=O)OC[C@H]1O[C@@H]([S-])[C@H](OC(C)=O)[C@@H](OC(C)=O)[C@@H]1OC(C)=O.CCP(CC)CC.[Au+] [Auranofin]
Result: 0.319

Task: Give the measured relative IC50 for Cn1c(=O)n(-c2ccc(C(C)(C)C#N)cc2)c2c3cc(-c4cnc5ccccc5c4)ccc3ncc21 [Dactolisib]
Result: 0.0405

Task: Give the measured relative IC50 for NC(=O)Nc1cc(-c2cccc(F)c2)sc1C(=O)N[C@H]1CCCNC1 [AZD7762]
Result: 0.127

Task: Give the measured relative IC50 for Cc1c(N)nc([C@H](CC(N)=O)NC[C@H](N)C(N)=O)nc1C(=O)N[C@H](C(=O)N[C@H](C)[C@@H](O)[C@H](C)C(=O)N[C@H](C(=O)NCCc1nc(-c2nc(C(=O)NCCC[S+](C)C)cs2)cs1)[C@@H](C)O)[C@@H](OC1OC(CO)C(O)C(O)C1OC1OC(CO)C(O)C(OC(N)=O)C1O)c1cnc[nH]1 (stereo partly drawn) [Bleomycin]
Result: 0.0418

Task: Give the measured relative IC50 for CC(C)[C@H](C(=O)Nc1ccc(C(=O)NO)cc1)c1ccccc1 [AR-42]
Result: 0.241

Task: Give the measured relative IC50 for COc1cc(OC)c(/C=C/S(=O)(=O)Cc2ccc(OC)c(NCC(=O)O)c2)c(OC)c1 [Rigosertib]
Result: 0.0535

---

test system: normal NK cells expanded with K562-aAPC; experiment: percent inhibition of viability; higher = more inhibition; details: 72 h; IL-2 2.5 ng/mL; 1000 nM
Task for the reader: assign each of the following compounds its reported percent inhibition of viability.

Task: Give the measured percent inhibition of viability for C[C@@H]1C[C@H]2[C@@H]3CCC4=CC(=O)C=C[C@]4(C)[C@@]3(F)[C@@H](O)C[C@]2(C)[C@@]1(O)C(=O)CO [Dexamethasone] (max concentration tested 10000 nM)
Result: 68.6%

Task: Give the measured percent inhibition of viability for NC(=O)NO [Hydroxyurea] (max concentration tested 100000 nM)
Result: -2.1%

Task: Give the measured percent inhibition of viability for C[C@]12C=CC(=O)C=C1CC[C@@H]1[C@@H]2[C@@H](O)C[C@@]2(C)[C@H]1CC[C@]2(O)C(=O)CO [Prednisolone] (max concentration tested 10000 nM)
Result: 57.3%

Task: Give the measured percent inhibition of viability for N#Cc1ccc2[nH]c(O)c(-c3ccc(CN4CCOCC4)cn3)c2c1 [AZD-1080] (max concentration tested 10000 nM)
Result: -4.69%

Task: Give the measured percent inhibition of viability for CCCc1cc(C)[nH]c(=O)c1CNC(=O)c1cc(-c2ccnc(N3CCN(C)CC3)c2)cc2c1cnn2C(C)C [GSK343] (max concentration tested 10000 nM)
Result: -5.85%

Task: Give the measured percent inhibition of viability for Cn1cc(C2=C(c3cn(C4CCN(Cc5ccccn5)CC4)c4ccccc34)C(=O)NC2=O)c2ccccc21 [Enzastaurin] (max concentration tested 10000 nM)
Result: 6.44%

Task: Give the measured percent inhibition of viability for CN(N=O)C(=O)N[C@@H](C=O)[C@@H](O)[C@H](O)[C@H](O)CO [Streptozocin] (max concentration tested 10000 nM)
Result: 7.51%

Task: Give the measured percent inhibition of viability for CNC(=O)c1ccccc1Sc1ccc2c(/C=C/c3ccccn3)n[nH]c2c1 [Axitinib] (max concentration tested 10000 nM)
Result: 11.1%

---

test system: NK-92 (IL-2 2.5 ng/mL); test: percent inhibition of viability; higher = more inhibition; conditions: 72 h; 100 nM
measuredParameter: percent inhibition of viability (%)
Your answer should be a plain number; it is taken to be in %.

Task: Give the measured percent inhibition of viability for COc1cccc2c1C(=O)c1c(O)c3c(c(O)c1C2=O)C[C@@](O)(/C(CO)=N/NC(=O)CCCCCN1C(=O)C=CC1=O)C[C@@H]3O[C@H]1C[C@H](N)[C@H](O)[C@H](C)O1 [Aldoxorubicin] (max concentration tested 1000 nM)
Result: 53.2

Task: Give the measured percent inhibition of viability for c1ccc(Cn2c(-c3ccc(OC[C@H](C4CCNCC4)n4c(-c5ccccc5)nc5ccccc54)cc3)nc3ccccc32)cc1 [deltarasin] (max concentration tested 10000 nM)
Result: -7.87

Task: Give the measured percent inhibition of viability for CC(C)NC[C@@H](C(=O)N1CCN(c2ncnc3c2[C@H](C)C[C@H]3O)CC1)c1ccc(Cl)cc1 [GDC-0068] (max concentration tested 10000 nM)
Result: 7.49

Task: Give the measured percent inhibition of viability for CC[C@H](C)C(=O)O[C@H]1C[C@@H](C)C=C2C=C[C@H](C)[C@H](CC[C@@H]3C[C@@H](O)CC(=O)O3)[C@H]21 [Lovastatin] (max concentration tested 10000 nM)
Result: 2.92

Task: Give the measured percent inhibition of viability for O=C(CCCCCCC(=O)Nc1ccc([C@H]2O[C@@H](CSc3nc(-c4ccccc4)c(-c4ccccc4)o3)C[C@@H](c3ccc(CO)cc3)O2)cc1)NO [Tubacin] (max concentration tested 10000 nM)
Result: 12.8

Task: Give the measured percent inhibition of viability for CO[C@H]1C[C@@H]2CC[C@@H](C)[C@@](O)(O2)C(=O)C(=O)N2CCCC[C@H]2C(=O)O[C@H]([C@H](C)C[C@@H]2CC[C@@H](OCCO)[C@H](OC)C2)CC(=O)[C@H](C)/C=C(\C)[C@@H](O)[C@@H](OC)C(=O)[C@H](C)C[C@H](C)/C=C/C=C/C=C/1C [Everolimus] (max concentration tested 100 nM)
Result: 17

Task: Give the measured percent inhibition of viability for O=C(O)CCCc1ccc(N(CCCl)CCCl)cc1 [Chlorambucil] (max concentration tested 10000 nM)
Result: -3.93

Task: Give the measured percent inhibition of viability for Clc1ccc(Nc2nnc(Cc3ccncc3)c3ccccc23)cc1 [Vatalanib] (max concentration tested 10000 nM)
Result: 10.4

Task: Give the measured percent inhibition of viability for CC(C)[C@H](C(=O)Nc1ccc(C(=O)NO)cc1)c1ccccc1 [AR-42] (max concentration tested 10000 nM)
Result: 34.6

---

test system: KHYG-1 (IL-2 2.5 ng/mL); assay: percent inhibition of viability; higher = more inhibition; conditions: 72 h; 100 nM
measuredParameter: percent inhibition of viability (%)
Your answer should be a plain number; it is taken to be in %.

Task: Give the measured percent inhibition of viability for CS(=O)(=O)N1CCN(Cc2cc3nc(-c4cccc5[nH]ncc45)nc(N4CCOCC4)c3s2)CC1 [Pictilisib] (max concentration tested 10000 nM)
Result: -5.51

Task: Give the measured percent inhibition of viability for Nc1nc(Cl)nc2c1ncn2[C@@H]1O[C@H](CO)[C@@H](O)[C@@H]1F [Clofarabine] (max concentration tested 10000 nM)
Result: 98.4

Task: Give the measured percent inhibition of viability for O=C(O)c1ccc(-c2c[nH]c3ncc(-c4ccccc4)cc23)cc1C1CCCC1 (max concentration tested 10000 nM)
Result: 6.23

Task: Give the measured percent inhibition of viability for Nc1ccccc1NC(=O)c1ccc(CNc2nccc(-c3cccnc3)n2)cc1 [Mocetinostat] (max concentration tested 10000 nM)
Result: -4.57

Task: Give the measured percent inhibition of viability for CO[C@@H](C(=O)N1Cc2[nH]nc(NC(=O)c3ccc(N4CCN(C)CC4)cc3)c2C1)c1ccccc1 [Danusertib] (max concentration tested 10000 nM)
Result: 5.51

Task: Give the measured percent inhibition of viability for CC(C)NC[C@@H](C(=O)N1CCN(c2ncnc3c2[C@H](C)C[C@H]3O)CC1)c1ccc(Cl)cc1 [GDC-0068] (max concentration tested 10000 nM)
Result: 10.8

Task: Give the measured percent inhibition of viability for CN(N=O)C(=O)N[C@@H](C=O)[C@@H](O)[C@H](O)[C@H](O)CO [Streptozocin] (max concentration tested 10000 nM)
Result: 2.57

Task: Give the measured percent inhibition of viability for O=C(O)CC[C@H]1CC[C@@](c2cc(F)ccc2F)(S(=O)(=O)c2ccc(Cl)cc2)CC1 [MK-0752] (max concentration tested 1000 nM)
Result: -1.77

Task: Give the measured percent inhibition of viability for CC(C)(C)NC(=O)[C@H]1CC[C@H]2[C@@H]3CC[C@H]4NC(=O)C=C[C@]4(C)[C@H]3CC[C@]12C [Finasteride] (max concentration tested 10000 nM)
Result: 3.63

Task: Give the measured percent inhibition of viability for N#CC1(c2ccc(NC(=O)c3cccnc3NCc3ccncc3)cc2)CCCC1 [Apatinib] (max concentration tested 10000 nM)
Result: 2.62

Task: Give the measured percent inhibition of viability for CCn1c(C(=O)N(C2CC2)C2CC2)cc2c3c(ncn3C)c(Nc3cc(C)n(C)n3)nc21 (max concentration tested 10000 nM)
Result: 4.17

Task: Give the measured percent inhibition of viability for c1ccc(Cn2c(-c3ccc(OC[C@H](C4CCNCC4)n4c(-c5ccccc5)nc5ccccc54)cc3)nc3ccccc32)cc1 [deltarasin] (max concentration tested 10000 nM)
Result: -1.42
